organism: Rattus norvegicus; assay: Tested for antagonistic activity against ET-1 induced increase in intracellular [Ca2+] in VSM-A10 cells.; assay type: functional, cell-based
Listed next: entries and their corresponding pIC50.
Notebook: values listed as pIC50 are -log10 of the concentration (mol/L).

Ask: # input compound: Cc1onc(NS(=O)(=O)c2ccc(N)cc2)c1C ; wanted: its pIC50
Reply: 4.40

Ask: Another: Cc1noc(NS(=O)(=O)c2ccc(N)cc2)c1C
Reply: 4.40

* * *

molecular target: Endothelin-1 receptor (Rattus norvegicus); test: Antagonism of [125 I]ET-1 binding to the rat endothelin receptor in vascular smooth muscle VSM-A10 cells.
We begin with a simple list: items and their reported IC50.
The figure you give is taken to be in nM; do not add the unit.

Some solved entries appear below for comparison.
MOLECULE	UNIT_INFO	IC50
CC(=O)N(c1onc(C)c1C)S(=O)(=O)c1ccc(N)cc1 [SULFISOXAZOLE ACETYL]	nM	13000
Cc1noc(NS(=O)(=O)c2cccc3c(N(C)C)cccc23)c1Cc1ccccc1	nM	50000
CCCCCNc1cccc2c(S(=O)(=O)Nc3onc(C)c3C)cccc12	nM	80
Cc1noc(NS(=O)(=O)c2cccc3c(N4CCCCC4)cccc23)c1C	nM	1760
CCNc1cccc2c(S(=O)(=O)Nc3onc(C)c3C)cccc12	nM	60

Ask: I'd like to know its IC50. The molecule in question is Cc1noc(NS(=O)(=O)c2cccc3ccc(N)cc23)c1C
Reply: 1400

Ask: # iterate: Nc1ccc(S(=O)(=O)Nc2nncs2)cc1
Reply: 57000

Ask: Can you handle CCCCN(CCCC)c1cccc2c(S(=O)(=O)Nc3onc(C)c3C)cccc12 next?
Reply: 15900

Ask: // repeat for CCOC(=O)C(C)Nc1cccc2c(S(=O)(=O)Nc3onc(C)c3C)cccc12 (stereo not given) and report
Reply: 400

* * *

target: Endothelin-1 receptor (Rattus norvegicus, UniProt P26684); assay: Antagonism of [125 I]ET-1 binding to the rat endothelin receptor in vascular smooth muscle VSM-A10 cells.
Sequence (P26684 whole entry): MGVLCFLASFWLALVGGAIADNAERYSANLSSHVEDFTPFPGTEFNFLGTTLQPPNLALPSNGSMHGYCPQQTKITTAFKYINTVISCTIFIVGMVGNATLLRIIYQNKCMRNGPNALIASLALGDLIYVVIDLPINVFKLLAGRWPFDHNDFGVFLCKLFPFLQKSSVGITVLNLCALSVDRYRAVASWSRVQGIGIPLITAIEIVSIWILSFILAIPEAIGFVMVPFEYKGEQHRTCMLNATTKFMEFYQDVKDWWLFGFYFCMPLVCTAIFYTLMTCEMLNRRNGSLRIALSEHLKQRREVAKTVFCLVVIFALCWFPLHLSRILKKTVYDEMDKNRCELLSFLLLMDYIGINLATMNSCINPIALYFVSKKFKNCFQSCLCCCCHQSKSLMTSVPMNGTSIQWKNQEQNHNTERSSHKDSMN
pIC50: −log10 of the molar value.
Cut-off 5 on pIC50, inclusive. At or above means MET; below means NOT MET.

Ask: Is pIC50 for Cc1noc(NS(=O)(=O)c2ccc(NC(=S)Nc3ccccc3)cc2)c1C at or above 5?
Reply: MET

Ask: Queued: COC(=O)c1cccc2c(S(=O)(=O)Nc3onc(C)c3C)cccc12
Reply: MET

Ask: Please answer likewise for Cc1noc(NS(=O)(=O)c2cccc3c(NCCCC(=O)O)cccc23)c1C
Reply: MET

Ask: Can you check Cc1noc(NS(=O)(=O)c2cccc3c(N(C)C)cccc23)c1[N+](=O)[O-] next?
Reply: NOT MET

Ask: Repeat with Cc1noc(NS(=O)(=O)c2cccc3c(NC(=O)C(C)C)cccc23)c1C
Reply: MET

Ask: Query CC(C)(C)c1cc(NS(=O)(=O)c2ccc(N)cc2)no1 next
Reply: NOT MET

Ask: Nc1ccc(S(=O)(=O)Nc2cc(-c3ccccc3)on2)cc1 ?
Reply: NOT MET

Ask: Query Cc1noc(NS(=O)(=O)c2cccc3c(NC(=S)Nc4ccccc4)cccc23)c1C next
Reply: MET

* * *

molecular target: Endothelin-1 receptor (Rattus norvegicus); assay: Antagonism of [125 I]ET-1 binding to the rat endothelin receptor in vascular smooth muscle VSM-A10 cells.
MEASUREMENT_KIND: pIC50
Give only the number. pIC50 is defined as minus log10 of concentration in molar units.

Cc1noc(NS(=O)(=O)c2cccc3c(CN(C)C)cccc23)c1C 5.55
CCCNc1ccc(S(=O)(=O)Nc2onc(C)c2C)cc1 4.57
Cc1noc(NS(=O)(=O)c2ccc3cc(N)ccc3c2)c1C 6.18
CCc1c(C)noc1NS(=O)(=O)c1cccc2c(N(C)C)cccc12 6.54
Cc1noc(NS(=O)(=O)c2cccc3c(NCc4ccccc4)cccc23)c1C 6.23

Ask: // returns reported pIC50 for input Cc1noc(NS(=O)(=O)c2cccc3c(N4CCCC4)cccc23)c1C
Reply: 7.52

Ask: // same read-out, input: Cc1noc(NS(=O)(=O)c2cccc3c(C(C)(C)O)cccc23)c1C
Reply: 5.54

* * *

target: Endothelin-1 receptor (Rattus norvegicus); assay: Antagonism of [125 I]ET-1 binding to the rat endothelin receptor in vascular smooth muscle VSM-A10 cells.
pIC50: −log10 of the molar value.
pIC50 vs 5: at or above is criterion met, below is criterion not met.

Solved entries:
Cc1noc(NS(=O)(=O)c2cccc3c(N(C)C(C)C)cccc23)c1C criterion met
CNc1cccc2c(S(=O)(=O)Nc3onc(C)c3C)cccc12 criterion met
Nc1ccc(S(=O)(=O)Nc2nccs2)cc1 criterion not met
Cc1noc(NS(=O)(=O)c2cccc(-c3ccccc3)c2)c1C criterion met
Cc1noc(NS(=O)(=O)c2cccc3c(N(C)C)cccc23)c1-c1ccccc1 criterion not met
Cc1noc(NC(=O)c2ccc(N)cc2)c1C criterion not met
Cc1noc(NS(=O)(=O)c2cccc3c(N4CCCCC4=O)cccc23)c1C criterion met
Cc1noc(NS(=O)(=O)c2ccc(NC(=O)CN)cc2)c1C criterion met
Cc1cnoc1NS(=O)(=O)c1cccc2c(N(C)C)cccc12 criterion met
Cc1noc(NS(=O)(=O)c2cccc3c(NC(C)C)cccc23)c1C criterion met

Ask: Please indicate if the recorded pIC50 for CCCNc1cccc(S(=O)(=O)Nc2onc(C)c2C)c1 meets or exceeds 5.
Reply: criterion met

Ask: Queued: Cc1noc(NS(=O)(=O)c2cccc3c(NCCCCCc4ccccc4)cccc23)c1C
Reply: criterion met

Ask: Repeat with Cc1noc(NS(=O)(=O)c2cccc3c(N4CCCC4=O)cccc23)c1C
Reply: criterion met

Ask: Try this compound next: CCc1noc(NS(=O)(=O)c2cccc3c(N(C)C)cccc23)c1C
Reply: criterion met

Ask: Now this one: Cc1cc(NS(=O)(=O)c2ccc(N)cc2)on1
Reply: criterion not met

Ask: Queued: CN(C)c1cccc2c(S(=O)(=O)Nc3onc4c3CCCC4)cccc12
Reply: criterion not met

Ask: Cc1onc(NS(=O)(=O)c2cccc3c(N(C)C)cccc23)c1C ?
Reply: criterion met

Ask: Follow-up entry: Cc1noc(NS(=O)(=O)c2ccc(F)cc2)c1C
Reply: criterion met

Ask: Entry CCOC(=O)c1c(C)noc1NS(=O)(=O)c1cccc2c(N(C)C)cccc12 please
Reply: criterion not met

* * *

target: UniProt:P26684; assay: Antagonism of [125 I]ET-1 binding to the rat endothelin receptor in vascular smooth muscle VSM-A10 cells.
MEASUREMENT_KIND: IC50 (µM)
Express your answer in µM, writing the number without its unit.

Solved entries (count: 2):
O=S(=O)(Nc1nccs1)c1ccc(O)cc1 30
Cc1noc(NS(=O)(=O)c2ccc(NC(=O)Nc3ccccc3)cc2)c1C 38

Ask: // IC50 lookup, key: Nc1ccc(S(=O)(=O)Nc2noc3c2CCCC3)cc1
Reply: 32

* * *

Each entry below carries its reported pIC50.
molecular target: Endothelin-1 receptor (Rattus norvegicus, UniProt P26684); assay: Antagonism of [125 I]ET-1 binding to the rat endothelin receptor in vascular smooth muscle VSM-A10 cells.
# pIC50 is unitless: minus log10 of the molar concentration; print number only

Below: 3 compounds and their reported pIC50.
Cc1noc(NS(=O)(=O)c2cccc3c(O)cccc23)c1C 5.11
Cc1noc(NS(=O)(=O)c2cccc3c(NCCC(c4ccccc4)c4ccccc4)cccc23)c1C 5.11
Cc1noc(NS(=O)(=O)c2ccc(NCc3ccccc3)cc2)c1C 5.01

--- query ---
Ask: Query (compound): Cc1cc(NS(=O)(=O)c2cccc3c(N(C)C)cccc23)on1 ; field requested: pIC50
Reply: 5.05
